The measurements presented in this section are drawn from patent US7776862B2.

- testTarget: human CXCR3 (N-delta 4) (Homo sapiens)
- Construct: CD8 leader; Flag tag; expressed in transfected cells; membranes used
- Sequence (P49682 5-368 limits assumed): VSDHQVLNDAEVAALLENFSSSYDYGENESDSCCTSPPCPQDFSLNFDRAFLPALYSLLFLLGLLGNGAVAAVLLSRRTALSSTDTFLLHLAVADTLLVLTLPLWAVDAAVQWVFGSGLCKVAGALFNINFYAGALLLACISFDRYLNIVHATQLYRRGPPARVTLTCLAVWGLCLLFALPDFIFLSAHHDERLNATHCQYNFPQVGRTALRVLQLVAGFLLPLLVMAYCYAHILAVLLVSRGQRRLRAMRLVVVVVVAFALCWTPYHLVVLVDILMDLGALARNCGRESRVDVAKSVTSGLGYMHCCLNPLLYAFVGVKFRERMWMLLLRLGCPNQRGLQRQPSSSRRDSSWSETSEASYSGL
- procedureDetails: Human CXCR3 (N-delta 4) scintillation proximity assay (SPA), [125I] IP-10 binding
- testContext: IC50 rating; Ba/F3-hCXCR3 (N-delta 4) membranes, 25 pM [125I] IP-10
pIC50: −log10 of the molar value.
assayReadout: pIC50

See these solved cases before continuing.
# compound, testTarget, pIC50
records = [
    ("O=C(NCCOc1ccccc1)c1cnc(N2CCN(C3CCN(Cc4ccc(Cl)cc4)CC3)CC2)c(Br)c1", "human CXCR3 (N-delta 4) (Homo sapiens)", "7.00 to 7.60"),
    ("N#Cc1ccc(C(=O)N2CCC(N3CCN(c4ncc(C(=O)NCc5ccc(F)c(F)c5)cc4Cl)CC3)CC2)cc1", "human CXCR3 (N-delta 4) (Homo sapiens)", "< 7.00"),
]

What measured pIC50 goes with CCNC(=O)c1cnc(N2CCN(C3CCN(C(C)c4ccc(Cl)cc4)CC3)[C@@H](C)C2)c(Cl)c1 (stereo partly shown) ?
> 7.60

What measured pIC50 goes with CCNC(=O)N(CC)Cc1cnc(N2CCN(C3CCN(Cc4ccc(Cl)cc4F)CC3)[C@@H](CC)C2)c(Cl)c1 ?
7.00 to 7.60

What measured pIC50 goes with C[C@@H]1CN(c2ncc(C(=O)NCc3ccc(F)c(F)c3)cc2Cl)CCN1C1CCN(Cc2ccc(C#N)cc2)CC1 ?
7.00 to 7.60

What measured pIC50 goes with CC[C@H]1CN(c2ncc(CNC(=O)NC3CCCCC3)cc2Cl)CCN1C1CCN(Cc2ccc(Cl)cc2F)CC1 ?
> 7.60

What measured pIC50 goes with CCNC(=O)c1cnc(N2CCN(C3CCN(Cc4ccc(Cl)cc4F)CC3)C(C3CC3)C2)c(Cl)c1 (stereo not shown) ?
> 7.60

====

- testTarget: human CXCR3 (N-delta 4) (Homo sapiens, UniProt P49682)
- Construct: CD8 leader; Flag tag; expressed in transfected cells; membranes used
- procedureDetails: Human CXCR3 (N-delta 4) scintillation proximity assay (SPA), [125I] IP-10 binding
- testContext: IC50 rating; Ba/F3-hCXCR3 (N-delta 4) membranes, 25 pM [125I] IP-10
pIC50: −log10 of the molar value.
assayReadout: pIC50

See these solved cases before continuing.
# molecule, testTarget, assayReadout, readoutValue
records = [
    ("CC(C)NC(=O)c1cnc(N2CCN(C3CCN(Cc4ccc(Cl)cc4)CC3)CC2)c(Cl)c1", "human CXCR3 (N-delta 4) (Homo sapiens, UniProt P49682)", "pIC50", "< 7.00"),
    ("O=C(NCc1ccc(C(F)(F)F)cc1)c1cnc(N2CCN(C3CCN(Cc4ccc(Cl)cc4)CC3)CC2)c(Br)c1", "human CXCR3 (N-delta 4) (Homo sapiens, UniProt P49682)", "pIC50", "7.00 to 7.60"),
    ("O=C(NCc1ccc(C(F)(F)F)cc1)c1cnc(N2CCN(C3CCN(Cc4ccc(Br)cc4)CC3)CC2)c(Br)c1", "human CXCR3 (N-delta 4) (Homo sapiens, UniProt P49682)", "pIC50", "< 7.00"),
    ("N#Cc1ccc(C(=O)N2CCC(N3CCN(c4ncc(C(=O)NCCOc5ccccc5)cc4Br)CC3)CC2)cc1", "human CXCR3 (N-delta 4) (Homo sapiens, UniProt P49682)", "pIC50", "< 7.00"),
    ("CC[C@H]1CN(c2ncc(CNS(C)(=O)=O)cc2Cl)CCN1C1CCN(Cc2ccc(Br)cc2F)CC1", "human CXCR3 (N-delta 4) (Homo sapiens, UniProt P49682)", "pIC50", "> 7.60"),
    ("C[C@H]1CN(c2ccc(C(=O)NCc3ccc(F)c(F)c3)cc2Cl)CCN1C1(C)CCN(Cc2ccc(Cl)cc2)CC1", "human CXCR3 (N-delta 4) (Homo sapiens, UniProt P49682)", "pIC50", "7.00 to 7.60"),
    ("CCOC(CNC(=N)c1cnc(N2CCN(C3CCN(Cc4ccc(Cl)cc4F)CC3)[C@@H](CC)C2)c(Cl)c1)OCC", "human CXCR3 (N-delta 4) (Homo sapiens, UniProt P49682)", "pIC50", "7.00 to 7.60"),
    ("O=C(NCc1ccc(Cl)cc1F)c1cnc(N2CCN(C3CCN(Cc4ccc(F)cc4)CC3)CC2)c(Cl)c1", "human CXCR3 (N-delta 4) (Homo sapiens, UniProt P49682)", "pIC50", "7.00 to 7.60"),
    ("O=C(NCc1ccc(Cl)cc1Cl)c1cnc(N2CCN(C3CCN(Cc4ccc(F)cc4F)CC3)CC2)c(Cl)c1", "human CXCR3 (N-delta 4) (Homo sapiens, UniProt P49682)", "pIC50", "< 7.00"),
    ("C[C@@H]1CN(C2CCN(Cc3ccc(C#N)cc3)CC2)CCN1c1ncc(C(=O)NCc2ccc(Cl)c(Cl)c2)cc1Cl", "human CXCR3 (N-delta 4) (Homo sapiens, UniProt P49682)", "pIC50", "< 7.00"),
]

What measured pIC50 goes with N#Cc1ccc(C(=O)N2CCC(N3CCN(c4ncc(C(=O)NCc5ccc(C(F)(F)F)cc5)cc4Cl)CC3)CC2)cc1 ?
< 7.00

What measured pIC50 goes with N#Cc1ccc(C(=O)N2CCC(N3CCN(c4ncc(C(=O)NCc5ccc(F)c(Cl)c5)cc4Cl)CC3)CC2)cc1 ?
< 7.00

What measured pIC50 goes with O=C(NCc1ccc(Cl)cc1F)c1cnc(N2CCN(C3CCN(Cc4ccc(F)c(F)c4)CC3)CC2)c(Cl)c1 ?
7.00 to 7.60

What measured pIC50 goes with CNC(=O)c1cnc(N2CCN(C3CCN(C(C)c4ccc(Cl)cc4)CC3)[C@@H](C)C2)c(Cl)c1 (stereo partly drawn) ?
> 7.60

What measured pIC50 goes with CC[C@H]1CN(c2ncc(CN)cc2Cl)CCN1C1CCN(Cc2ccc(Br)cc2F)CC1 ?
7.00 to 7.60

====

- testTarget: human CXCR3 (N-delta 4) (Homo sapiens, UniProt P49682)
- Construct: CD8 leader; Flag tag; expressed in transfected cells; membranes used
- procedureDetails: Human CXCR3 (N-delta 4) scintillation proximity assay (SPA), [125I] IP-10 binding
- testContext: IC50 rating; Ba/F3-hCXCR3 (N-delta 4) membranes, 25 pM [125I] IP-10
assayReadout: IC50

# molSmiles, IC50
records = [
    ("O=C(NC1CCCC1)c1cnc(N2CCN(C3CCN(Cc4ccc(Cl)cc4)CC3)CC2)c(Br)c1", "> 100 nM"),
    ("CC[C@H]1CN(c2ncc(CNC(=O)NC(C)(C)C)cc2Cl)CCN1C1CCN(Cc2ccc(Cl)cc2F)CC1", "< 25 nM"),
]

Value wanted: IC50 (human CXCR3 (N-delta 4) (Homo sapiens, UniProt P49682)) of entry CC[C@H]1CN(c2ncc(CN(C3CC3)S(C)(=O)=O)cc2Cl)CCN1C1CCN(Cc2ccc(Cl)cc2F)CC1
25 to 100 nM

====

- testTarget: human CXCR3 (N-delta 4) (Homo sapiens)
- Construct: CD8 leader; Flag tag; expressed in transfected cells; membranes used
- procedureDetails: Human CXCR3 (N-delta 4) scintillation proximity assay (SPA), [125I] IP-10 binding
- testContext: IC50 rating; Ba/F3-hCXCR3 (N-delta 4) membranes, 25 pM [125I] IP-10
pIC50: −log10 of the molar value.
As shown below, each of these molecules has a reported pIC50 value.

See these solved cases before continuing.
# molSmiles, readoutValue
records = [
    ("C[C@H]1CN(C2CCN(Cc3ccc(Cl)cc3)CC2)CCN1c1ncc(C(=O)NCc2ccc(Cl)c(Cl)c2)cc1Cl", "7.00 to 7.60"),
    ("CC[C@H]1CN(c2ncc(C(=O)OC)cc2Cl)CCN1C1CCN(Cc2ccc(Br)cc2F)CC1", "< 7.00"),
    ("CCNC(=O)NCc1cnc(N2CCN(C3CCN(Cc4ccc(Cl)cc4)CC3)[C@@H](CC)C2)c(Cl)c1", "> 7.60"),
    ("CCNC(=O)N(Cc1cnc(N2CCN(C3CCN(Cc4ccc(Cl)cc4F)CC3)[C@@H](CC)C2)c(Cl)c1)C1CC1", "7.00 to 7.60"),
    ("CC[C@H]1CN(c2ncc(C(N)=NO)cc2Cl)CCN1C1CCN(Cc2ccc(Cl)cc2F)CC1", "> 7.60"),
]

What measured pIC50 goes with CC[C@H]1CN(c2ncc(COC(=O)Nc3c(C)noc3C)cc2Cl)CCN1C1CCN(Cc2ccc(Cl)cc2F)CC1 ?
> 7.60

What measured pIC50 goes with CC[C@H]1CN(c2ncc(CNC3CC3)cc2Cl)CCN1C1CCN(Cc2ccc(Cl)cc2F)CC1 ?
> 7.60

What measured pIC50 goes with O=C(NCc1ccc(F)cc1F)c1cnc(N2CCN(C3CCN(Cc4ccc(Cl)cc4Cl)CC3)CC2)c(Cl)c1 ?
< 7.00

What measured pIC50 goes with C[C@H]1CN(c2ncc(C(=O)N3CCCCC3)cc2Cl)CCN1C1CCN(Cc2ccc(Cl)cc2)CC1 ?
< 7.00
